molecular target: human plasmin (Homo sapiens); construct: plasmin, the potent general protease produced by cleavage of plasminogen by either urokinase or tPA; purchased American Diagnostica; test: Plasmin Assay; assay type: biochemical; conditions: read-out: PLASMIN IC50
Sequence (P00747 581-810 limits assumed): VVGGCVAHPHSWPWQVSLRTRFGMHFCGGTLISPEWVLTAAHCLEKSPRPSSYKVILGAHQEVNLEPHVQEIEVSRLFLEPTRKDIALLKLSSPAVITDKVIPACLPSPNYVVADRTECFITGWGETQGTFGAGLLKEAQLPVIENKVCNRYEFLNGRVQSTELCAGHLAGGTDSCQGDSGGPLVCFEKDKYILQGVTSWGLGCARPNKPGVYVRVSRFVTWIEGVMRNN
Sequence (P00747 97-580 limits assumed): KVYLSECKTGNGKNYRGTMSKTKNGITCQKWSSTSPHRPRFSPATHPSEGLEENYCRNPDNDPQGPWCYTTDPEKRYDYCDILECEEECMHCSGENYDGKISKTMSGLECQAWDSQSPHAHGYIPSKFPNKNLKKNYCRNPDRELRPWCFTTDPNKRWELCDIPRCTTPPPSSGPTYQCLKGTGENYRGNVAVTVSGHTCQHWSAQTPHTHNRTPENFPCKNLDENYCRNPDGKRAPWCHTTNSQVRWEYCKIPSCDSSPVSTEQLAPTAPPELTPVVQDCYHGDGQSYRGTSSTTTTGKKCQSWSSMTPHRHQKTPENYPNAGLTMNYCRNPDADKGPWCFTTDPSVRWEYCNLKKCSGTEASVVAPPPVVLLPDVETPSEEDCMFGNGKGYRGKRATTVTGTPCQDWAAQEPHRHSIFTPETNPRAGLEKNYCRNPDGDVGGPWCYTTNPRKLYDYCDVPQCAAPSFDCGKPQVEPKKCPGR
Where a name gives a salt, the structure may show the parent alone.
Label T when IC50 < 400 µM; otherwise F.

Worked set:
[[record]]
compound = "CCCCC=Cc1cccc2sc(C(=N)N)cc12 [Compound 29, hydrochloride]"
classification = "T"

[[record]]
compound = "C#Cc1cccc2sc(C(=N)N)cc12.Cl [Compound 39, hydrochloride]"
classification = "F"

[[record]]
compound = "C=CCOCc1cc2ccc3sc(C(=N)N)cc3c2s1 [Compound 208, hydrochloride]"
classification = "T"


Please find the next compound below.
Incoming: Here's an entry: C=Cc1ccc2sc(C(=N)N)cc2c1.Cl [Compound 114, hydrochloride] . Is its IC50 below 400 µM?
Outgoing: T
